- study-target: Prostaglandin G/H synthase 2 (Homo sapiens)
- Sequence (P35354 whole entry): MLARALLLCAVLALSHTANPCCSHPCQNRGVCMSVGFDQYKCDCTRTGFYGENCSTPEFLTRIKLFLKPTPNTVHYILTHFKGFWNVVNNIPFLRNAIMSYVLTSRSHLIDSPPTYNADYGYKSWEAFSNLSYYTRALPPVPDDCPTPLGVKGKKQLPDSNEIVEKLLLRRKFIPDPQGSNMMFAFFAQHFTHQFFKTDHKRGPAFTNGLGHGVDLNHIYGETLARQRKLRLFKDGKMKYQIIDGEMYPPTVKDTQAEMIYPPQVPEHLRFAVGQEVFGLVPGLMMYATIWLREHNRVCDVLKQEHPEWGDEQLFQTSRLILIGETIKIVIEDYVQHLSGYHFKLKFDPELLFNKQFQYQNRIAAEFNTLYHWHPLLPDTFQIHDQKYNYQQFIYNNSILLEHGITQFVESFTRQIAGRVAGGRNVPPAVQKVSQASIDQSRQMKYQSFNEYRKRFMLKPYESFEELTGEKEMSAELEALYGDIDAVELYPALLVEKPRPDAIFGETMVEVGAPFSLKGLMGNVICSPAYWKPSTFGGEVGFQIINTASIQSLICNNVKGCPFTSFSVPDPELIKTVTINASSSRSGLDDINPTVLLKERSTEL
- test: Inhibition of human recombinant COX-2 using arachidonic acid as substrate preincubated with enzyme for 5 mins followed by substrate addition by colorimetric analysis
pIC50: −log10 of the molar value.
quantity-kind: pIC50

- compound: "COc1cc(Cc2n[nH]c(=S)n(/N=C/c3cc4cc(C)ccc4nc3O)c2=O)ccc1O"
  quantity-kind: "pIC50"
  endpoint-value: 7.07
- compound: "CC(C)Oc1ccc2nc(O)c(/C=N/n3c(=S)[nH]nc(Cc4ccccc4)c3=O)cc2c1"
  quantity-kind: "pIC50"
  endpoint-value: 6.49
- compound: "O=c1c(Cc2ccccc2)n[nH]c(=S)n1/N=C/c1cc2cc(OCc3ccccc3)ccc2nc1O"
  quantity-kind: "pIC50"
  endpoint-value: 7.33
- compound: "COc1cc(Cc2n[nH]c(=S)n(/N=C/c3cc4ccc(OCc5ccccc5)cc4nc3Cl)c2=O)cc(OC)c1OC"
  quantity-kind: "pIC50"
  endpoint-value: 6.92
- compound: "COc1ccc2cc(/C=N/n3c(=S)[nH]nc(Cc4cc(OC)c(OC)c(OC)c4)c3=O)c(O)nc2c1"
  quantity-kind: "pIC50"
  endpoint-value: 7.01
- compound: "Cc1ccc2nc(O)c(/C=N/n3c(=S)[nH]nc(Cc4ccccc4)c3=O)cc2c1"
  quantity-kind: "pIC50"
  endpoint-value: 6.55
- compound: "O=c1c(Cc2cccs2)n[nH]c(=S)n1/N=C/c1cc2ccccc2nc1O"
  quantity-kind: "pIC50"
  endpoint-value: 7.10
- compound: "O=c1c(Cc2ccccc2)n[nH]c(=S)n1/N=C/c1cc2ccccc2nc1O"
  quantity-kind: "pIC50"
  endpoint-value: 7.27
- compound: "COc1cc(Cc2n[nH]c(=S)n(/N=C/c3cc4cc(C)ccc4nc3O)c2=O)cc(OC)c1OC"
  quantity-kind: "pIC50"
  endpoint-value: 7.19

----------
Each entry below carries its recorded IC50.
- study-target: Prostaglandin G/H synthase 2 (Homo sapiens, UniProt P35354)
- test: Inhibition of human recombinant COX-2
quantity-kind: IC50 (nM)

- compound: "COc1ccc(/C=C\\C(=O)c2cc(-n3cc(CN4C(=O)C(=O)c5ccccc54)nn3)ccc2O)cc1"
  quantity-kind: "IC50"
  endpoint-value: 37
- compound: "O=C1N/C(=N\\c2nnc(-c3ccc(O)cc3)s2)S/C1=C\\c1ccccc1"
  quantity-kind: "IC50"
  endpoint-value: 85

----------
- System: RAW264.7
- test: Potency index, ratio of diclofenac sodium IC50 to test compound IC50 for inhibition of LPS-induced IL-6 production in mouse RAW264.7 cells preincubated for 2 hrs followed by LPS stimulation and measured after 20 hrs by ELISA
- Format: functional
- conditions-used: time 22 hrs
Ratio IC50 vs 2: less than gives 1; not less than gives 0.

- compound: "COc1cc(Cc2n[nH]c(=S)n(/N=C/c3cc4ccc(OCc5ccccc5)cc4nc3Cl)c2=O)cc(OC)c1OC"
  assigned-category: 0
- compound: "COc1ccc2cc(/C=N/n3c(=S)[nH]nc(Cc4cc(OC)c(OC)c(OC)c4)c3=O)c(O)nc2c1"
  assigned-category: 0
- compound: "COc1ccc2nc(O)c(/C=N/n3c(=S)[nH]nc(Cc4ccccc4)c3=O)cc2c1"
  assigned-category: 0
- compound: "O=c1c(Cc2ccccc2)n[nH]c(=S)n1/N=C/c1cc2cc(OCc3ccccc3)ccc2nc1O"
  assigned-category: 1
- compound: "COc1cc(Cc2n[nH]c(=S)n(/N=C/c3cc4cccc(C)c4nc3Cl)c2=O)cc(OC)c1OC"
  assigned-category: 0

----------
- test: Inhibition of soybean 5-LOX
- Design: species or system Glycine max
pIC50: −log10 of the molar value.

- compound: "COc1ccc(-c2nn(-c3ccc(Cl)cc3)cc2/C=C/c2cc(C(=O)N3CCOCC3)c3cc(Cl)ccc3n2)cc1"
  pIC50: 5.73

----------
Each entry below carries its recorded Ratio IC50.
- test: Selectivity index, ratio of IC50 for ovine COX-1 to IC50 for human recombinant COX-2

- compound: "COc1cc(Cc2n[nH]c(=S)n(/N=C/c3cc4cc(C)ccc4nc3O)c2=O)cc(OC)c1OC"
  Ratio IC50: 177
- compound: "Cc1ccc2nc(O)c(/C=N/n3c(=S)[nH]nc(Cc4ccccc4)c3=O)cc2c1"
  Ratio IC50: 21.1
- compound: "O=c1c(Cc2ccccc2)n[nH]c(=S)n1/N=C/c1cc2cc(OCc3ccccc3)ccc2nc1O"
  Ratio IC50: 266
- compound: "O=c1c(Cc2cccs2)n[nH]c(=S)n1/N=C/c1cc2ccccc2nc1O"
  Ratio IC50: 140
- compound: "COc1ccc2nc(O)c(/C=N/n3c(=S)[nH]nc(Cc4cc(OC)c(OC)c(OC)c4)c3=O)cc2c1"
  Ratio IC50: 197
- compound: "COc1cc(Cc2n[nH]c(=S)n(/N=C/c3cc4cccc(C)c4nc3Cl)c2=O)cc(OC)c1OC"
  Ratio IC50: 51.9
- compound: "COc1cc(Cc2n[nH]c(=S)n(/N=C/c3cc4cc(C)ccc4nc3O)c2=O)ccc1O"
  Ratio IC50: 121
- compound: "O=c1c(Cc2ccccc2)n[nH]c(=S)n1/N=C/c1cc2ccccc2nc1O"
  Ratio IC50: 209
- compound: "Cc1ccc2nc(O)c(/C=N/n3c(=S)[nH]nc(Cc4cccs4)c3=O)cc2c1"
  Ratio IC50: 81.8

----------
- study-target: Prostaglandin G/H synthase 1 (Ovis aries)
- Sequence (P05979 whole entry): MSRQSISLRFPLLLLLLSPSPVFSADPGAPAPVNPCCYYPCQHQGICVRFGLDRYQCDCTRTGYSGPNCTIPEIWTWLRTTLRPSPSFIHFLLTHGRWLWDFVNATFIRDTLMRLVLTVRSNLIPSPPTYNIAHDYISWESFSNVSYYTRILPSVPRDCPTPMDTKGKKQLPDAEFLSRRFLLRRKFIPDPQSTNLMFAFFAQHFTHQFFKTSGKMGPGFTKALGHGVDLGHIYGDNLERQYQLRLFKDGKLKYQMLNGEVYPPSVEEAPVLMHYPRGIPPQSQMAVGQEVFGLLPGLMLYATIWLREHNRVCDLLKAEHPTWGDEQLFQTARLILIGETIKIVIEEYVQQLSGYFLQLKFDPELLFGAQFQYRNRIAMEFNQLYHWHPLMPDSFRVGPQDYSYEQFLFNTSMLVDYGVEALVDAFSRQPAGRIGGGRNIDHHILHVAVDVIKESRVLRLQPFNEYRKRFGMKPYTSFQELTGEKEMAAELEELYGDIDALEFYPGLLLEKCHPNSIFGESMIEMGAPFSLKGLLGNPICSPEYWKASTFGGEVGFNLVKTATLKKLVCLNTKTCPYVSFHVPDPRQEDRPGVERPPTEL
- test: Inhibition of ovine COX-1
Each entry below carries its recorded IC50.
quantity-kind: IC50 (µM)

- compound: "O=C1N/C(=N\\c2nnc(-c3ccc(O)cc3)s2)S/C1=C\\c1ccccc1"
  readout-unit: "µM"
  endpoint-value: 4.66
- compound: "COc1ccc(/C=C\\C(=O)c2cc(-n3cc(CN4C(=O)C(=O)c5ccccc54)nn3)ccc2O)cc1"
  readout-unit: "µM"
  endpoint-value: 13.3

----------
- study-target: Prostaglandin G/H synthase 1 (Ovis aries, UniProt P05979)
- Sequence (P05979 whole entry): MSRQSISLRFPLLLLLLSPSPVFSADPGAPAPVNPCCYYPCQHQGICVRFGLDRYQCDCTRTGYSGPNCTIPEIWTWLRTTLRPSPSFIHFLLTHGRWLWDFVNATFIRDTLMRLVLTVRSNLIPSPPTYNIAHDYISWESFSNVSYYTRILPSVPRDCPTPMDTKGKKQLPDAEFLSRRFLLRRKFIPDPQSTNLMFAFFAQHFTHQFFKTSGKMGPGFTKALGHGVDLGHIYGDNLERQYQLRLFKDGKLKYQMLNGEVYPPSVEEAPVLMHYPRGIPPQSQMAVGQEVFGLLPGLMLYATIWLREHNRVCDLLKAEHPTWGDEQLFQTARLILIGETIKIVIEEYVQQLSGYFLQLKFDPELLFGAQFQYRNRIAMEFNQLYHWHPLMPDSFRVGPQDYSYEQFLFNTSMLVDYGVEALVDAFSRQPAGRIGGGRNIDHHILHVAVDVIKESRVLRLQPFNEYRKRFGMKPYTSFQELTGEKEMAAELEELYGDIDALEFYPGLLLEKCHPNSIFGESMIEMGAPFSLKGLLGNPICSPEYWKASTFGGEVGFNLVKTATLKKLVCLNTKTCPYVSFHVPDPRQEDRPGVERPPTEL
- test: Inhibition of ovine COX-1 by EIA
pIC50: −log10 of the molar value.
quantity-kind: pIC50

- compound: "CCOC(=O)c1cnn(C(=O)c2cc(-c3ccc(Cl)cc3)nc3ccc(OC)cc23)c1N"
  endpoint-value: "< 4.30"
